Assay: Bmi1 luciferase reporter increase in mESCs, primary screen, esBAF inhibitor project, mouse ES cells, Bmi1 luciferase knock-in, single point (AID 602393);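 note: a rise in the Bmi1 reporter signal indicates esBAF inhibition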
Details: 24 h, at 12.5 µM, 100% = twice the neutral-well signal
The campaign covered roughly 350,000 compounds. About 7,000 (2%) were called active. Cut-off read from the data, not from the text of the source: active = activation above about 40%; inconclusive = no clear call, values can overlap the other calls; inactive = below that. For the sample, actives were picked, then their nearest neighbours and some compounds at random.
// classify into active, inactive

Sample answers from the record:
1) O=C(NCC(=O)N1CCN(c2ccccc2F)CC1)c1cccs1	inactive
2) O=C(Nc1ccon1)c1sc2ccccc2c1Cl	active
3) C[C@H](CO)N1C[C@H](C)[C@@H](CN(C)S(=O)(=O)c2ccc(Cl)cc2)Oc2ccc(NS(C)(=O)=O)cc2CC1=O	inactive
4) COc1ccccc1NC(=O)C1CCCN(c2cc(C)nc3ncnn23)C1 (stereo not drawn)	inactive
5) COCCNC(=O)C[C@H]1CC[C@H](NS(=O)(=O)c2ccc(C)cc2)[C@@H](CO)O1	inactive

I'd appreciate the recorded outcome for "O=C(CCSc1ccccc1)N1CCN(c2ccccc2F)CC1" from this test.
active

I'd appreciate the recorded outcome for "CCCNC(=O)Nc1ccc2c(c1)C(=O)N(C)C[C@@H](OC)[C@H](C)CN(C(=O)C1CCCCC1)[C@H](C)CO2" from this test.
inactive

I'd appreciate the recorded outcome for "CCOC(=O)c1cc(-c2sc(NC(=O)c3ccccc3)nc2C)n(CCO)n1" from this test.
inactive

I'd appreciate the recorded outcome for "COc1ccccc1-c1cnn2c(N3CCOCC3)cc(C)nc12" from this test.
active

I'd appreciate the recorded outcome for "C[C@@H](NC(=O)C[C@H]1CC[C@H](NS(=O)(=O)c2cccc(F)c2)[C@H](CO)O1)c1ccccc1" from this test.
inactive

I'd appreciate the recorded outcome for CCC(=O)N1c2ccc(S(=O)(=O)CCC(=O)N3CCN(c4ccccc4)CC3)cc2CC1C (stereo not drawn) from this test.
inactive

I'd appreciate the recorded outcome for "CNC[C@H]1Oc2ccc(NS(=O)(=O)c3ccccc3)cc2CC(=O)N([C@H](C)CO)C[C@@H]1C" from this test.
inactive
